target: native human MET on living human cells (human, UniProt P08581 25-1390); assay: cell-based or functional assay
Sequence (P08581 25-1390): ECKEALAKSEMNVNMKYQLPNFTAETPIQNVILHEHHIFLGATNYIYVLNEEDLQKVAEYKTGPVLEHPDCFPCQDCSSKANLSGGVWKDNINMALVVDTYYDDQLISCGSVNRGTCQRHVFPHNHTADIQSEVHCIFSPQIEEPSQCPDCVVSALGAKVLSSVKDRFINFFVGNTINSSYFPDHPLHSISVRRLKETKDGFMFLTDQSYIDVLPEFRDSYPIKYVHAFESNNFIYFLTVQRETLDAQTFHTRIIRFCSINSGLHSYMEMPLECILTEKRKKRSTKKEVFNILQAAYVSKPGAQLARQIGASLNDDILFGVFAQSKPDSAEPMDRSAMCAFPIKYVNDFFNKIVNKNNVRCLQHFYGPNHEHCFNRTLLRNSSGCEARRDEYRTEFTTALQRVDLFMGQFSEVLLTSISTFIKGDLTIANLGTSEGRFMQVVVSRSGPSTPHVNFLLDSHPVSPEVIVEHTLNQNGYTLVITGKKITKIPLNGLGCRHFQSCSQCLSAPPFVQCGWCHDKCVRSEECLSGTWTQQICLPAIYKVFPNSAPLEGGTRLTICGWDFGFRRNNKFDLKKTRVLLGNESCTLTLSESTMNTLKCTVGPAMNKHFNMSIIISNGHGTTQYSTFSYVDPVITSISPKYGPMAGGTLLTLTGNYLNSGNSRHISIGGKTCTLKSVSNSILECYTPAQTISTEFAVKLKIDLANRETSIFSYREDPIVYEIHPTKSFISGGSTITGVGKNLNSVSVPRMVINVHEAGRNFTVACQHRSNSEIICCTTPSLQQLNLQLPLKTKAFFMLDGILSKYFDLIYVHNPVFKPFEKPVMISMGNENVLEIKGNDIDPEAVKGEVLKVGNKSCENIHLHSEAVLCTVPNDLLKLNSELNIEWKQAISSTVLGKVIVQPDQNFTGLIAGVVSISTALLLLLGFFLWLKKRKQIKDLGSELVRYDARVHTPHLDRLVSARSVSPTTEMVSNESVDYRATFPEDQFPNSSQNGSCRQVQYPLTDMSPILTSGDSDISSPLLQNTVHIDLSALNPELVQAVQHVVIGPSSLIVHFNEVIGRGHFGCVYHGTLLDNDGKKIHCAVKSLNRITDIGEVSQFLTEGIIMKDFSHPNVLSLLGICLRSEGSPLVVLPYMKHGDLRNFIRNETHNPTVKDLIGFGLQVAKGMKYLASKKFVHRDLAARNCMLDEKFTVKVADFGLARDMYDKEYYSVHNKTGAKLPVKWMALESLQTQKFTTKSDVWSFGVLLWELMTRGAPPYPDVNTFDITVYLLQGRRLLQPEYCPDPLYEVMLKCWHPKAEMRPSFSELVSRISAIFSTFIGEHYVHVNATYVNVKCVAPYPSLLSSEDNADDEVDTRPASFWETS
property label: cell scattering score, HPAF-II, 0.333 nM (score 0-4)
Answer with a number only, understood to be in score 0-4.

{"columns": ["binder", "value"],
 "data": [
  ["chimeric llama-human IgG1 mAb 71G2 (antibody, V domains shown) VH: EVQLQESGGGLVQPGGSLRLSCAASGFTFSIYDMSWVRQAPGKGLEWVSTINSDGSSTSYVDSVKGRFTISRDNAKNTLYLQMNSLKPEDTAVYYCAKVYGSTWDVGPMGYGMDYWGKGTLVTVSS VL: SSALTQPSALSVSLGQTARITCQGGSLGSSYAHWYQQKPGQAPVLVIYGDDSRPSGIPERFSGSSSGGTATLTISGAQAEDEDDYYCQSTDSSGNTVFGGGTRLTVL", 4],
  ["chimeric llama-human IgG1 mAb 71G12 (antibody, V domains shown) VH: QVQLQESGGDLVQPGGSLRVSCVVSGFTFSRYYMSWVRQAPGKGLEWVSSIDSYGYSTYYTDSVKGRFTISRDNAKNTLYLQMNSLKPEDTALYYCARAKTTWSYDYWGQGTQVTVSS VL: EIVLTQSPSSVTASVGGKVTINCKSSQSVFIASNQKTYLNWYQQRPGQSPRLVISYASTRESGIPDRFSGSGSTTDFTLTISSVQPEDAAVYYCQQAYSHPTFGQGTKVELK", 1],
  ["chimeric llama-human IgG1 mAb 76H10 (antibody, V domains shown) VH: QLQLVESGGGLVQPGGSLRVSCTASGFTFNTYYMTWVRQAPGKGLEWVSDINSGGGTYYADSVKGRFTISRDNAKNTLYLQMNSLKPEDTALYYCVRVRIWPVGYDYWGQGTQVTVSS VL: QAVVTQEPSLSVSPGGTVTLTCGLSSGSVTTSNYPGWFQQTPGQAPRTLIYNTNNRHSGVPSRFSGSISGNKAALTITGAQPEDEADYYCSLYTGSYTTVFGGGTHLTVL", 0],
  ["chimeric llama-human IgG1 mAb 72F8 (antibody, V domains shown) VH: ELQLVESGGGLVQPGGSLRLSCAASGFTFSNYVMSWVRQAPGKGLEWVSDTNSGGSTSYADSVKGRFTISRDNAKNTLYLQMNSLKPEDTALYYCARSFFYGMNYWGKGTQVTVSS VL: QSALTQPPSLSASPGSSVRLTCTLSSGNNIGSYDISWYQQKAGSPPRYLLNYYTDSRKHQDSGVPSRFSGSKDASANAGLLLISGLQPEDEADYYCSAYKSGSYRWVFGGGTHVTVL", 0],
  ["chimeric llama-human IgG1 mAb 71G3 (antibody, V domains shown) VH: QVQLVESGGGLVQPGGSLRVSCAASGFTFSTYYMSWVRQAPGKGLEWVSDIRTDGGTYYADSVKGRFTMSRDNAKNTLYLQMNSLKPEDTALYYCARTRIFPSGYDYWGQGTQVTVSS VL: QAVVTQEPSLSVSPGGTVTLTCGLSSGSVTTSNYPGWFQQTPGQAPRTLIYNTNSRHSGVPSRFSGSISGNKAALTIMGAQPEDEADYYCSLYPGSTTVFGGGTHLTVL", 4]
]}

Okay, now this binder:
Request: Field request: cell scattering score, HPAF-II, 0.333 nM | item: chimeric llama-human IgG1 mAb 71A3 (antibody, V domains shown) VH: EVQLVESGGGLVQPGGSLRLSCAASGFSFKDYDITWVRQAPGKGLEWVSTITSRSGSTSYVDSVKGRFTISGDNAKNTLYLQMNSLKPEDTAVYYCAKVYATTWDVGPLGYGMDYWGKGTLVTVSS VL: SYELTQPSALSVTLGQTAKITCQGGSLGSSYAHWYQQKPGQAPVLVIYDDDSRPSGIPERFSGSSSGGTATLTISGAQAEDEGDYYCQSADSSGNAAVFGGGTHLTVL
Response: 4

Origin of measurements: patent US20210024639A1
